Molecular target: Human 11β-HSD1 (Homo sapiens, UniProt P28845)
Sequence (P28845 whole entry): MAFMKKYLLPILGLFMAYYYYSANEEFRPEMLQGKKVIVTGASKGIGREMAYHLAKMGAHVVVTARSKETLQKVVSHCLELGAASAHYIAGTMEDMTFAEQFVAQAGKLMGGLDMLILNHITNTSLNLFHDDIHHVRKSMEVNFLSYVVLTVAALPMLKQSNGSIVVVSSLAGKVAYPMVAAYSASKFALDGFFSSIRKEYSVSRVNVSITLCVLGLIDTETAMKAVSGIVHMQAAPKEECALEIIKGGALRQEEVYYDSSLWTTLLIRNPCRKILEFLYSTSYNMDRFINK
Assay: 11β-HSD1 HTRF assay (human liver microsome fractions, cortisol by HTRF)
Type: biochemical
Settings: 10 μM compound; human liver microsomes
inhibition at 10 µM values for the compounds below.
quantity.measured: inhibition at 10 µM

In [3]: df
Out[3]:
                                    compound    quantity_measured  readout_value
 0    Cc1cnc(CNC(=O)C23CC4CC(CC(C4)C2)C3)cn1  inhibition at 10 µM          > 60%
 1    Cc1ccc(OCC(=O)C23CC4CC(CC(C4)C2)C3)cc1  inhibition at 10 µM          > 60%
 2  O=C(NCCc1c[nH]c2ccccc12)C12CC3CC(CC(C3)C1)C2  inhibition at 10 µM          > 60%
 3  O=S(=O)(NC1C2CC3CC(C2)CC1C3)c1cccs1 (stereo not shown)  inhibition at 10 µM          > 60%
 4  O=C(COCc1ccc(Cl)cc1)C12CC3CC(CC(C3)C1)C2  inhibition at 10 µM          > 60%
 5  Clc1ccc(-c2noc(C34CC5CC(CC(C5)C3)C4)n2)cc1  inhibition at 10 µM      20 to 60%
 6       O=C(NCc1cccnc1)C12CC3CC(CC(C3)C1)C2  inhibition at 10 µM          > 60%
 7  CCCc1ccc(S(=O)(=O)NCC23CC4CC(CC(C4)C2)C3)cc1  inhibition at 10 µM          > 60%
 8   O=C(COc1ccc(Cl)cc1)C12CC3CC(CC(C3)C1)C2  inhibition at 10 µM          > 60%
 9  Cc1nc2c(NC(=O)CC34CC5CC(CC(C5)C3)C4)c(C)ccc2s1  inhibition at 10 µM          > 60%
10  O=C(CSCc1ccc(Cl)cc1)C12CC3CC(CC(C3)C1)C2  inhibition at 10 µM          > 60%
11  O=C(CS(=O)(=O)c1ccc(Cl)cc1)C12CC3CC(CC(C3)C1)C2  inhibition at 10 µM          > 60%
12  Cc1nc2cc(NCC(=O)C34CC5CC(CC(C5)C3)C4)ccc2s1  inhibition at 10 µM          > 60%
13  CCCc1ccc(S(=O)(=O)NC23CC4CC(CC(C4)C2)C3)cc1  inhibition at 10 µM      20 to 60%
14      O=C(CC12CC3CC(CC(C3)C1)C2)NCc1ccccn1  inhibition at 10 µM          > 60%
15    Cc1ccc(SCC(=O)C23CC4CC(CC(C4)C2)C3)cc1  inhibition at 10 µM          > 60%
16  O=S(=O)(NC12CC3CC(CC(C3)C1)C2)c1ccc(-c2ccccc2)cc1  inhibition at 10 µM      20 to 60%
17  O=C(COc1ccc(-c2ccccc2)cc1)C12CC3CC(CC(C3)C1)C2  inhibition at 10 µM          > 60%
18      O=C(NCCN1CCCCC1)C12CC3CC(CC(C3)C1)C2  inhibition at 10 µM          > 60%
